- target under test: T1, Human 4-1BB extracellular domain recombinant protein (his-tag) (human, UniProt Q07011 24-186)
- T1 construct: extracellular domain; also called Human4-1BB, his-tag; human 4-1BB extracellular region recombinant protein; not shown: his-tag
- measurement protocol: ELISA, coated human 4-1BB-his 200 ng/well; antibody 0.37 µg/ml
Listed next: entries and their corresponding absorbance at 450 nm.
Write the value as a bare number.

binder="137-12 VHH-hFc recombinant antibody (Fc fusion, VHH fragment inserted into vector pFclG with human IgG1 Fc tag, expressed in HEK293F; not shown: human IgG1 Fc tag of the eukaryotic expression vector pFclG) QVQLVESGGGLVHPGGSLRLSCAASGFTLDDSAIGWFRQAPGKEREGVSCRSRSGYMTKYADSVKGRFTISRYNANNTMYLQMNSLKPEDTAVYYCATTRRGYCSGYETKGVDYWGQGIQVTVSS" test_value=0.341
binder="137-1 VHH-hFc recombinant antibody (Fc fusion, also called CD137-1; not shown: human IgG1 Fc tag of the eukaryotic expression vector pFclG) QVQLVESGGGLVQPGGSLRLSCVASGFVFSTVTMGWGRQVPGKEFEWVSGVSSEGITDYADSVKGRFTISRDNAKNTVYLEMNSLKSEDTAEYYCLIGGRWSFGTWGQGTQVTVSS" test_value=3.97

// next item, absorbance at 450 nm requested
In: # get_value(readout='absorbance at 450 nm', item= 137-36 VHH-hFc recombinant antibody (Fc fusion, VHH fragment inserted into vector pFclG with human IgG1 Fc tag, expressed in HEK293F; not shown: human IgG1 Fc tag of the eukaryotic expression vector pFclG) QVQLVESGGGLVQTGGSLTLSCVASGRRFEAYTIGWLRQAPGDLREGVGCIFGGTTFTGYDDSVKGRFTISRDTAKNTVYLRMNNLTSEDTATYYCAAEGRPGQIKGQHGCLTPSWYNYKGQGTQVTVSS )
Out: 0.347
